Consider the following molecules; for each one, report its EC50.
# STUDY SYSTEM: cloned human M2 receptor (Homo sapiens, UniProt P08172)
# Sequence (P08172 whole entry): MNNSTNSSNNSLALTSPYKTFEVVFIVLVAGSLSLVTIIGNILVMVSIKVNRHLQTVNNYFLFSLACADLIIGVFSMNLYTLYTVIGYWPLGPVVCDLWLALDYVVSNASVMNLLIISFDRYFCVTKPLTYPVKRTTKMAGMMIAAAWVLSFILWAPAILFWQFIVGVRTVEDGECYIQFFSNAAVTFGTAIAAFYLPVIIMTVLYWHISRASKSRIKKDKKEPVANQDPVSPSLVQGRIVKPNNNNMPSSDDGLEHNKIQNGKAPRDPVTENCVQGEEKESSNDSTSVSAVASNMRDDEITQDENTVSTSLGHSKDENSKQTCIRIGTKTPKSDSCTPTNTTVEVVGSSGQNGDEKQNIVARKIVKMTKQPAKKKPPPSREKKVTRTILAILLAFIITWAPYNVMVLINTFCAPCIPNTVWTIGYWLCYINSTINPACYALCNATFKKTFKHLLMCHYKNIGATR
# METHOD SUMMARY: hM2 receptor GTPγS binding
# CONDITION NOTES: CHO membranes expressing hM2, [35S]GTPγS binding

Worked examples, 5 molecules total:
| MOLECULE | RESULT |
| --- | --- |
| CC1(N2CCC(N3C(=O)C[C@H]4CCCC[C@@H]43)CC2)CCN(C(=O)C2CC2)CC1 | > 15 µM |
| CC(C)OC(=O)N1CCC(C)(N2CCC(N3C(=O)N[C@@H]4CCCC[C@@H]43)CC2)CC1 (relative stereo) | > 30 µM |
| CC(C)OC(=O)N1CCC(C)(N2CCC(N3C(=O)N[C@H]4CCCC[C@@H]43)CC2)CC1 | > 0.2 µM |
| C#CCOC(=O)N1CCC(C)(N2CCC(N3C(=O)N[C@H]4CCCC[C@@H]43)CC2)C1 (mixture of isomers) | > 1 µM |
| CC(C)OC(=O)N1CCC(C)(N2CCC(N3C(=O)C[C@H]4CCCC[C@@H]43)CC2)CC1 | > 30 µM |

Now, please, on to the next molecule.
Form field - read-out: EC50; system: cloned human M2 receptor (Homo sapiens, UniProt P08172); submitted item: CC1(N2CCC(N3C(=O)N[C@H]4CCCC[C@@H]43)CC2)CCN(C(=O)OCCF)C1 (mixture of isomers)
> 15 µM
